Assay: Pharmacokinetic screening in rats, brain and plasma concentrations at 6 hour time point
Type: in vivo
Details: male, Sprague Dawley; brain/plasma ratio, rat, 5 mg/kg oral (PO), 6 hour time point; read-out: B/P Ratio
Counter-ions that a name gives are not always drawn.
reported-endpoint: Kp at 6 h

molecule | recorded-value
CCOCc1nc(-c2ccc(OC[C@@H](O)CN(C)C)cc2)cn1-c1ccc(Oc2ccc(Cl)cc2)cc1 [Example 6, dihydrochloride] | 25.3
CCCCc1nc(-c2ccc(OC[C@H](O)CNC)cc2)cn1-c1ccc(Oc2ccc(Cl)cc2)cc1 [Example 9, dihydrochloride] | 7.2
CCCCc1nc(-c2ccc(OC[C@@H](O)CNC)cc2)cn1-c1ccc(Oc2ccc(Cl)cc2)cc1 [Example 10, dihydrochloride] | 2.9
CCOCc1nc(-c2ccc(OC[C@H](O)CN(CC)CC)cc2)cn1-c1ccc(Oc2ccc(Cl)cc2)cc1 [Example 7, dihydrochloride] | 9.1

Origin of measurements: patent US8580833B2
